Below, each of the compounds is paired with its reported EC50 value.
- testSystem: RXRγ (Mus musculus)
- Construct: expressed in transfected cells; host or cells: CV-1 (monkey kidney)
- Sequence (P28705 whole entry): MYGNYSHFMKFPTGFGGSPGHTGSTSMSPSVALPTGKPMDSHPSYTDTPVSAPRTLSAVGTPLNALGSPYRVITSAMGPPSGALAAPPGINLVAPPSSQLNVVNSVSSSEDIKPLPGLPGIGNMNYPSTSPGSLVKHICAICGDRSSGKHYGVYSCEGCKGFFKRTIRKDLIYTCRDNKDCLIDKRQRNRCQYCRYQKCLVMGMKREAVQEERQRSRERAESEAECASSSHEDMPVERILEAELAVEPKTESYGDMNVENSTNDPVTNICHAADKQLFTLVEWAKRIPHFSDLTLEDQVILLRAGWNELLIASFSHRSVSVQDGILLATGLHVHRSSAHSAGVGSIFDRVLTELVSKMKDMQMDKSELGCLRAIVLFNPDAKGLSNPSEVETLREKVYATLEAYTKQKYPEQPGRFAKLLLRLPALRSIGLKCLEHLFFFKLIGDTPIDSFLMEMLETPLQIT
- assayComment: co-transfection (cis-trans) assay in CV-1 cells, RXRγ
- Type: cell-based
- details: CV-1 cells, luciferase reporter; concentration giving 50% of maximal observed response; read-out: Potency (nM) RXRγ
propertyMeasured: EC50 (nM)

> print(dat)
                                smilesinput  propertymeasured  recordedresult
1  C=C(c1ccc(C(=O)O)cc1)c1ccc(C(C)(C)C)cc1C              EC50             290
2  Cc1cc(C(C)(C)C)ccc1C(=NO)c1ccc(C(=O)O)cc1              EC50             190

* * *

- testSystem: RXRβ (Mus musculus)
- Construct: expressed in transfected cells; host or cells: CV-1 (monkey kidney)
- Sequence (P28704 whole entry): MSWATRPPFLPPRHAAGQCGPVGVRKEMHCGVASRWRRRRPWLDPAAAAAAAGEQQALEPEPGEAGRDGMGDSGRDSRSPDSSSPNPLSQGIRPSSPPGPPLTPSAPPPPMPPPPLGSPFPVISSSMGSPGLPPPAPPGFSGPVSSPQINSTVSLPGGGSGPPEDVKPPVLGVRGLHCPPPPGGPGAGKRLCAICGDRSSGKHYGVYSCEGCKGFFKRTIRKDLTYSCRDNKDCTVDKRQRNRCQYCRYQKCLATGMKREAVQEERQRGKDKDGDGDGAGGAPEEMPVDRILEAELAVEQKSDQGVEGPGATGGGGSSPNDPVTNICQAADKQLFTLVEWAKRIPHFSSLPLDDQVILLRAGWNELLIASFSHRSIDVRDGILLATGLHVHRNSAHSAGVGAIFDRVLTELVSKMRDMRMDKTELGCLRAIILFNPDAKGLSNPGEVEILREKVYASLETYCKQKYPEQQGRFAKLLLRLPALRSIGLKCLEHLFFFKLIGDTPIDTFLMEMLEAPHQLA
- assayComment: co-transfection (cis-trans) assay in CV-1 cells, RXRβ
- Assay type: cell-based
- details: CV-1 cells, luciferase reporter; concentration giving 50% of maximal observed response; read-out: Potency (nM) RXRβ
Below, each of the molecules is paired with its reported EC50 value.
propertyMeasured: EC50 (nM)

> print(dat)
                                   molecule  propertymeasured  recordedresult
1  Cc1cc(C(C)(C)C)ccc1C(=NO)c1ccc(C(=O)O)cc1 [Compound 137]              EC50             270
2  C=C(c1ccc(C(=O)O)cc1)c1ccc(C(C)(C)C)cc1C [Compound 133]              EC50             470

* * *

Below, each of the molecules is paired with its reported EC50 value.
- testSystem: RARβ (Homo sapiens)
- Construct: expressed in transfected cells; host or cells: CV-1 (monkey kidney)
- Sequence (P10826 1-448 isoform P10826-2): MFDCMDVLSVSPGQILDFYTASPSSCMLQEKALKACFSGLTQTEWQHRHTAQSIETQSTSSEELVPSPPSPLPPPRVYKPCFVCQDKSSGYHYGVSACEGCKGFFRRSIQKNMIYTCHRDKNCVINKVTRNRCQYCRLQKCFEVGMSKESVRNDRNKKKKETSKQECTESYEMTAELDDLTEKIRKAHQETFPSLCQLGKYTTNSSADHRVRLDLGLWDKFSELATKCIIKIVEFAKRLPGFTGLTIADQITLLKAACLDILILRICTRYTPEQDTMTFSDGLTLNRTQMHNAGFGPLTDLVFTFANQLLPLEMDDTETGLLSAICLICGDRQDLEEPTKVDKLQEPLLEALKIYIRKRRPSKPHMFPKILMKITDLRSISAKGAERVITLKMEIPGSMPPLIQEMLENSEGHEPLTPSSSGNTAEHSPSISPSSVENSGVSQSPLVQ
- assayComment: co-transfection (cis-trans) assay in CV-1 cells, RARβ
- Format: cell-based
- details: CV-1 cells, luciferase reporter; concentration giving 50% of maximal observed response; read-out: Potency (nM) RARβ
propertyMeasured: EC50

> print(dat)
                                smilesinput           testsystem  propertymeasured  recordedresult
1  C=C(c1ccc(C(=O)O)cc1)c1ccc(C(C)(C)C)cc1C  RARβ (Homo sapiens)              EC50      > 10000 nM
2  Cc1cc(C(C)(C)C)ccc1C(=NO)c1ccc(C(=O)O)cc1  RARβ (Homo sapiens)              EC50      > 10000 nM

* * *

- testSystem: RARγ (Homo sapiens)
- Construct: expressed in transfected cells; host or cells: CV-1 (monkey kidney)
- Sequence (P13631 whole entry): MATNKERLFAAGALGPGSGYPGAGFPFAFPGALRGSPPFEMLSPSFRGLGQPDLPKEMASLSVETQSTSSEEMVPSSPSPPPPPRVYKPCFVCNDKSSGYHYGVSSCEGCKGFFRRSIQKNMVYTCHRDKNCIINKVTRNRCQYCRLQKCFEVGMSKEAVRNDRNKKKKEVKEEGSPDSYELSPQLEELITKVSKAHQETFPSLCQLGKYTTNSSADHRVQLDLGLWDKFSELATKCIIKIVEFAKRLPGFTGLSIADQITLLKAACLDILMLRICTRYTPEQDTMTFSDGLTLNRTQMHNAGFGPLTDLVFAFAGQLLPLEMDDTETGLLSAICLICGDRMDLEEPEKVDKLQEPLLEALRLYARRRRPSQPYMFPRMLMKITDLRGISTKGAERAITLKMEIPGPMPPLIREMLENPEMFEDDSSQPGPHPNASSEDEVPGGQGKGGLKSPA
- assayComment: co-transfection (cis-trans) assay in CV-1 cells, RARγ
- Format: cell-based
- details: CV-1 cells, luciferase reporter; concentration giving 50% of maximal observed response; read-out: Potency (nM) RARγ
propertyMeasured: EC50

> print(dat)
                                   compound  propertymeasured  recordedresult
1  C=C(c1ccc(C(=O)O)cc1)c1ccc(C(C)(C)C)cc1C [Compound 133]              EC50      > 10000 nM
2  Cc1cc(C(C)(C)C)ccc1C(=NO)c1ccc(C(=O)O)cc1 [Compound 137]              EC50      > 10000 nM
